// data source = PubChem BioAssay (NCI)

For each record, write down the corresponding growth.
Tested on: MOLT-4 leukemia
Test: NCI-60 one-dose screen, 48 h (100 = growth as untreated, 0 = no growth, -100 = all killed)
Settings: 10 µM unless noted
The panel holds about 83,000 compounds, 20% with a hit somewhere; the sample as a whole holds those more often. Activity calls are given as the source filed them. Rule for the calls: active = growth percent below 10; inactive = the rest.

molecule	growth
O=C(CCl)NNc1nccc(Nc2ccc(S(=O)(=O)Nc3ccncc3)cc2)n1	44% (inactive)
Cc1ccc2c(-n3nc(C#N)c(C#N)c3N)cc(=O)[nH]c2c1	99.3% (inactive)
COc1ccc(/C=C(/c2ccccc2)[N+](=O)[O-])c(OC)c1	6.93% (active)

Please give growth, item by item, for the list that follows.
1. CN1CCN(c2ccc3nc4c(nc3c2C(F)(F)F)C(=O)c2ncccc2C4=O)CC1
2. C=C(C)[C@@H]1CC[C@]2(C(N)=O)CC[C@]3(C)[C@H](CC[C@@H]4[C@@]5(C)CC[C@H](OCCC#N)C(C)(C)[C@@H]5CC[C@]43C)[C@@H]12
3. CCOC(=O)C(Cc1ccc(OC)cc1)C(=O)OCC
4. Nc1nc(N)c2c(n1)NC(c1ccc(Cl)cc1)C1CCc3ccccc3C1=N2 (stereo not given)
5. COc1cccc(Nc2ncnc3cc(NC(=O)CCl)ccc23)c1
6. Cc1ccc(S(=O)(=O)OCCCOS(=O)(=O)c2ccc(C)cc2)cc1
7. COc1ccc(/C=C/C(=O)c2ccc(NC(=O)CSc3nc4c([nH]3)c(=O)n(C)c(=O)n4C)cc2)cc1OC
8. CS(=O)(=O)c1nnc(-c2ccccc2)s1

1. -36.4% (active)
2. 70% (inactive)
3. 37.7% (inactive)
4. 22.5% (inactive)
5. -31% (active)
6. 62.5% (inactive)
7. 72.4% (inactive)
8. 88.1% (inactive)

Please give growth, item by item, for the list that follows.
1. CN(Cc1ccccc1)c1nc(Cl)c(C2CC(c3ccccc3)=NN2c2ccccc2)s1 (stereo not given)
2. CN1CCN(CCOc2ccc(-c3cnc4c(-c5ccc(F)cc5)cnn4c3)cc2)CC1
3. CCCCCN(CCCCC)CC(O)c1cc(C)c2ccc3cc(C(C)C)ccc3c2c1 (stereo not given)

["97.1% (inactive)", "8.99% (active)", "-21.5% (active)"]

Please give growth, item by item, for the list that follows.
1. CSc1nn2c(-c3ccc4ccccc4c3)ccnc2c1C#N
2. Oc1ccc(/C=C/c2ccc(O)cc2)cc1
3. COC(=O)c1c2c(n3ccccc13)C(=O)c1ccccc1C2=O
4. O=C(N/N=C/c1cc(Cl)ccc1O)c1ccccc1Nc1ccnc(C(F)(F)F)c1
5. COc1cc(/C=C2\CN(S(=O)(=O)c3ccccc3)C/C(=C\c3cc(CN4CCCCC4)c(O)c(OC)c3)C2=O)cc(CN2CCCCC2)c1O
6. NC(=O)c1cccc([C@@H]2O[C@H](CO)[C@@H](O)[C@H]2O)c1

["28.5% (inactive)", "74.9% (inactive)", "35.5% (inactive)", "55% (inactive)", "-20.6% (active)", "-1.79% (active)"]

---

Tested on: PC-3 prostate
Test: NCI-60 one-dose screen, 48 h (100 = growth as untreated, 0 = no growth, -100 = all killed)
Details: 10 µM unless noted
This is part of a sample that, as a whole, favours compounds with a hit. Of some 83,000 tested, about 20% had one in any assay.
value kind: growth (%)
One number for each entry, in %.

smiles	growth, %
Clc1ccccc1-c1cnn2cc(-c3ccccc3)cnc12	86.4

Please give growth, item by item, for the list that follows.
1. O=C1Nc2ccccc2/C1=C/c1cccn1C(=O)c1ccc(Cl)s1
2. COc1ccc(C(=O)/C=C/c2ccc(Cl)cc2)cc1S(=O)(=O)Nc1c(N)nc(SC)[nH]c1=O
3. C/C=C(/C)n1cnc2c(Nc3ccccn3)nc(Cl)nc21
4. Cc1ccccc1Nc1cc(O)c2c(=O)cc(-c3ccccc3)oc2c1

1: 33; 2: 39.1; 3: 95.3; 4: 40.6
